- TARGET: human TLR8 (Homo sapiens (Human), UniProt Q9NR97)
- Sequence (Q9NR97 27-1041): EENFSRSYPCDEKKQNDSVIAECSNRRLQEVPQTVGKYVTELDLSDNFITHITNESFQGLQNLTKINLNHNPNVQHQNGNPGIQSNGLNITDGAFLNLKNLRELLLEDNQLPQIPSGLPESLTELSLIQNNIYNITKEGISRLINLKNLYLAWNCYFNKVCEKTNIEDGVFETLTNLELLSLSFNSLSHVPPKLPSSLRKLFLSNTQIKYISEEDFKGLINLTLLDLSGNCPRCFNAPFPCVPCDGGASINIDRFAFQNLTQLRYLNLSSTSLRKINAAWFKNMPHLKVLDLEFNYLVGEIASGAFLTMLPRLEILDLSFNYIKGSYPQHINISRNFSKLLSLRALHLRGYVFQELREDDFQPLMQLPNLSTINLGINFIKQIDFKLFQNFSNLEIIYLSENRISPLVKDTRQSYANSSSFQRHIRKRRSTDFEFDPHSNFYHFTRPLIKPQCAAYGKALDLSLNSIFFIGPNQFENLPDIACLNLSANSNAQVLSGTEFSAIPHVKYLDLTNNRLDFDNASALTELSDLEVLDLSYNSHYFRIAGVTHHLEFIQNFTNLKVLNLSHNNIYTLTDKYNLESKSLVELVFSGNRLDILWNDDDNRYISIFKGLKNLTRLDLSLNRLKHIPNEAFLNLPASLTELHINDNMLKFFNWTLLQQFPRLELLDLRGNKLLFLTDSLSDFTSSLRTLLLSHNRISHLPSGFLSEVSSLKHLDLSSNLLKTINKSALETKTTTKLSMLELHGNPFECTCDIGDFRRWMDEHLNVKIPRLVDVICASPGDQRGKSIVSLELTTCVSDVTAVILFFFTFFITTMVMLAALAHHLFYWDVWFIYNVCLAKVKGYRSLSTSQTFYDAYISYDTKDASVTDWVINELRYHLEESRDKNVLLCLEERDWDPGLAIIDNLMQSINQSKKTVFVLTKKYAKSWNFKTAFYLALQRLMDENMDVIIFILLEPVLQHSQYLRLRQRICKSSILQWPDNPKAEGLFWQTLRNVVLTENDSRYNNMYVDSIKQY
- EXPERIMENTAL_PROTOCOL: TLR8 inhibition reporter assay (HEK-Blue SEAP);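 note: SEAP driven by IFN-β minimal promoter with five NF-κB and AP-1 sites, compounds tested 0.05 nM to 50 µM, 22 h incubation, inhibition relative to agonist plus DMSO wells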
- PROTOCOL_CONDITIONS: read-out: TLR8 IC50; HEK-Blue cells overexpressing human TLR8, R848 15.9 μM stimulation, SEAP reporter
MEASUREMENT_KIND: IC50 (nM)

> print(dat)
                                   molecule  measurement.kind  measured
1  COc1cc(-c2[nH]c3cnc(N4CCC(NC(=O)CN(C)C)CC4)cc3c2C(C)C)cn2ncnc12              IC50       3.5
2  COc1cc(-c2[nH]c3cnc(C4CCC(NCC(C)(C)OC)CC4)c(C)c3c2C(C)C)cn2ncnc12 (stereo not shown) [Example 207]              IC50       7.7
3  COc1cc(-c2[nH]c3cnc(C4CCC(NCC(C)(C)C)C4)cc3c2C(C)C)cn2ncnc12 (stereo not shown) [Example 210]              IC50       6.6
4  Cc1c(-c2[nH]c3cnc(C4CCC(NC[C@@H](F)C(C)(C)O)CC4)c(F)c3c2C(C)C)cn2ncnc2c1C (stereo partly shown) [Example 175]              IC50       6.4
5  Cc1c(-c2[nH]c3cnc(C4CCN(C(=O)CN(C)C)CC4)c(F)c3c2C(C)C)cn2ncnc2c1C              IC50       4.7
6  Cc1c(-c2[nH]c3cnc(N4CCN(CC5CCOCC5)CC4)c(C)c3c2C(C)C)cn2ncnc2c1C              IC50       1.4
7  Cc1c(N2CCC(NC(C)C)CC2)ncc2[nH]c(-c3cc(C)c4ncnn4c3)c(C(C)C)c12              IC50       1.1

* * *

- TARGET: human TLR8 (Homo sapiens (Human))
- EXPERIMENTAL_PROTOCOL: TLR8 inhibition reporter assay (HEK-Blue SEAP)
- PROTOCOL_CONDITIONS: read-out: TLR8 IC50; HEK-Blue cells overexpressing human TLR8, R848 15.9 μM stimulation, SEAP reporter
MEASUREMENT_KIND: IC50 (nM)

> print(dat)
                                   compound  measured
1  COc1cc(-c2[nH]c3cnc(C4CCC(NCC5(C)COC5)C4)cc3c2C(C)C)cn2ncnc12 (stereo not shown) [Example 276]       1.2
2  Cc1c(-c2[nH]c3cnc(N4CCN(CC(N)=O)CC4)c(F)c3c2C(C)C)cn2ncnc2c1C       2.3
3  COc1cc(-c2[nH]c3cnc(N4CCC(N(C)C5COC5)CC4)cc3c2C(C)C)cn2ncnc12       1.5
4  Cc1cc(-c2[nH]c3cnc(C4CCN(CC(=O)N(C)C)CC4)c(F)c3c2C(C)C)cc(C)n1       5.2

* * *

- TARGET: UniProtKB Q9NR97
- EXPERIMENTAL_PROTOCOL: TLR8 inhibition reporter assay (HEK-Blue SEAP)
- PROTOCOL_CONDITIONS: read-out: TLR8 IC50; HEK-Blue cells overexpressing human TLR8, R848 15.9 μM stimulation, SEAP reporter
pIC50: −log10 of the molar value.
# key: entry, value: pIC50
MEASUREMENT_KIND: pIC50

> print(dat)
                                   compound            target  measurement.kind  measured
1  Cc1c(-c2[nH]c3cnc(C4CCC(NC5CCOCC5)CC4)c(C)c3c2C(C)C)cn2ncnc2c1C (stereo not shown) [Example 120]  UniProtKB Q9NR97             pIC50      8.70
2  COc1cc(-c2[nH]c3cnc(C4CCC(NC5COC5)C4)cc3c2C(C)C)cn2ncnc12 (stereo not shown) [Example 178]  UniProtKB Q9NR97             pIC50      8.57
3  COc1cc(-c2[nH]c3cnc(C4CCC(N5CC6(COC6)C5)CC4)c(C)c3c2C(C)C)cn2ncnc12 (stereo not shown) [Example 246]  UniProtKB Q9NR97             pIC50      7.77
4  Cc1c(-c2[nH]c3cnc(C4CCC(N5CC6(COC6)C5)CC4)c(C)c3c2C(C)C)cn2ncnc2c1C (stereo not shown) [Example 57]  UniProtKB Q9NR97             pIC50      7.72
5  COc1cc(-c2[nH]c3cnc(N4CCC(N(C)C(C)C)CC4)c(F)c3c2C(C)C)cn2ncnc12  UniProtKB Q9NR97             pIC50      9.18
6  COc1cc(-c2[nH]c3cnc(C4CCC(N(CC#N)C5COC5)CC4)c(F)c3c2C(C)C)cn2ncnc12 (stereo not shown) [Example 114]  UniProtKB Q9NR97             pIC50      8.18
7  COc1cc(-c2[nH]c3cnc(C4CCC(NC5COC5)CC4)c(C)c3c2C(C)C)cn2ncnc12 (stereo not shown) [Example 242]  UniProtKB Q9NR97             pIC50      7.85

The reported numbers originate from patent US11912703B2.
